Values from patent US9730943B2

System under test: PI3Kβ (Homo sapiens, UniProt P42338)
Construct: N-terminal His6-tagged recombinant full-length human p110β; His6 (N)
Sequence (P42338 whole entry): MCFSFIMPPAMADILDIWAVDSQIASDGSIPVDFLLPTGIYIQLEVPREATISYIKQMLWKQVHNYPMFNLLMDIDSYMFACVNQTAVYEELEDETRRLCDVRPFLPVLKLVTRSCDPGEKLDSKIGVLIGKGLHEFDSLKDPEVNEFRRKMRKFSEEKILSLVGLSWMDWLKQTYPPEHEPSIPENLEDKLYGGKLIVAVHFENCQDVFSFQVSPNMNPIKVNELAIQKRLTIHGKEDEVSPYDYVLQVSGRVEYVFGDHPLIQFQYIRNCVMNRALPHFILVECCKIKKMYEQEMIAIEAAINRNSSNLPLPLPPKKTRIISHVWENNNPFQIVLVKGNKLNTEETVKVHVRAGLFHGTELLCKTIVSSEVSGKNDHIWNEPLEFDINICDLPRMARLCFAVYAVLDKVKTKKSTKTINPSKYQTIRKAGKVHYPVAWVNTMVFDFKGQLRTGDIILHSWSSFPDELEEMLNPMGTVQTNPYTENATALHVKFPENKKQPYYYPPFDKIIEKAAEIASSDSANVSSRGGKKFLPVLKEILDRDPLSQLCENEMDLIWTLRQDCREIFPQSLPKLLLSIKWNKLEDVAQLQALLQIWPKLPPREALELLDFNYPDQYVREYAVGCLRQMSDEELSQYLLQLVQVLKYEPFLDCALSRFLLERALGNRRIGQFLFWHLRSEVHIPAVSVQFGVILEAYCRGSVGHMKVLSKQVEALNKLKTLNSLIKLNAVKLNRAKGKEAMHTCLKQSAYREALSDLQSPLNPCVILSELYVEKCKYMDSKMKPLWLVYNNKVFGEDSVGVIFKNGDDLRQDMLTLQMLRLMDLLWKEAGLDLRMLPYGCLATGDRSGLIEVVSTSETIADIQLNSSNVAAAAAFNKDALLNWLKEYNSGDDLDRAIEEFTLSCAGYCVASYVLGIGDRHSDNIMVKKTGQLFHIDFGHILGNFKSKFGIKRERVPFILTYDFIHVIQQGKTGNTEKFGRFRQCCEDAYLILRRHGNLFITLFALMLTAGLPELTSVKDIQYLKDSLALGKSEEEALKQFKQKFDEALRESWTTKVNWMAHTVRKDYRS
Sequence (P27986 whole entry partner): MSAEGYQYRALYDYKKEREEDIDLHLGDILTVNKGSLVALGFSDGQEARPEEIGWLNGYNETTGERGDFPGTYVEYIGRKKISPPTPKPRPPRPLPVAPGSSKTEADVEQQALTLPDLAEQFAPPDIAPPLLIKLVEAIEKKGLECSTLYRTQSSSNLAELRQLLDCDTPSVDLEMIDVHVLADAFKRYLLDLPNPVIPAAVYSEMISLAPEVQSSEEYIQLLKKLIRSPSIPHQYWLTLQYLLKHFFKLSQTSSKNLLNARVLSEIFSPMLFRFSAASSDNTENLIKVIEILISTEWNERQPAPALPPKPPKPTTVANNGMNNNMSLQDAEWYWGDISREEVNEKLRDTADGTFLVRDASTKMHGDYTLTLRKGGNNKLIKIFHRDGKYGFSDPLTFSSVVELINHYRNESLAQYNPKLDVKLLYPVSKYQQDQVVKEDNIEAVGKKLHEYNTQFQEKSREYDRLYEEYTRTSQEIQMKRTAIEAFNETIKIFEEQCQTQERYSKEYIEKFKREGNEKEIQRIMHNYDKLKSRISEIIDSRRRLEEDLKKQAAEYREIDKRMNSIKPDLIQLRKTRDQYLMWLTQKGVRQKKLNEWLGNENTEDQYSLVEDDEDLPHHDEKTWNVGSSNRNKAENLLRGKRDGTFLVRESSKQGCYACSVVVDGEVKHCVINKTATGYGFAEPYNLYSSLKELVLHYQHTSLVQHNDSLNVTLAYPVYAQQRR
Run description: PI3Kβ kinase assay (HTRF based PI3K inhibition assay)
Measurement context: complex of human p110β and human p85α; 10 μM ATP, 10 μM PIP2; read-out: average IC50 in the PI3K beta biochemical assay
Measured attribute: IC50

Need IC50 for each of these compounds.
1. COc1c(OC[C@](C)(O)CN2C[C@@H](C)O[C@@H](C)C2)ccc2c1N=C(NC(=O)c1cccnc1)N1CCN=C21 (relative stereo) [Example 10]
2. O=C(NC1=Nc2c(ccc(OCC(O)CN3CCOCC3)c2OCCc2ccc(F)cc2)C2=NCCN12)c1cccnc1 (stereo not drawn) [Example 9]
3. C[C@@H]1CN(C[C@@](C)(O)COc2ccc3c(c2OCCc2ccc(F)cc2)N=C(NC(=O)c2cccnc2)N2CCN=C32)C[C@H](C)O1 (relative stereo) [Example 12]

Marked response:
1: > 50 nM; 2: < 10 nM; 3: > 50 nM
